Known pIC50 of a selection of molecules
target: Human LDHA (Homo sapiens (Human), UniProt P00338); assay: human LDHA primary biochemical assay (resazurin/diaphorase coupled, fluorescence); conditions: LDHA inhibitory activity, activity level based on IC50 (Table 7)
pIC50: −log10 of the molar value.
Recorded Metric: pIC50

* NS(=O)(=O)c1ccc(Cc2cn(-c3nc(C(=O)O)cs3)nc2-c2cccc(OC3CCCC3)c2)cc1 [Compound 460] | > 7.00
* NS(=O)(=O)c1ccc(Cc2c(-c3cccc(-c4cccc(F)c4)c3)nn(-c3nc(C(=O)O)cs3)c2CC2CC2)cc1F [Compound 365] | > 7.00
* N[S+](=O)([O-])c1ccc(Cc2c(-c3ccc(F)c(C4=CCNCC4)c3)nn(-c3nc(C(=O)O)cs3)c2CC2CC2)cc1F [Compound 369] | > 7.00
* NS(=O)(=O)c1ccc(Cc2c(-c3cccc(N4CCCC(F)(F)C4)c3)nn(-c3nc(C(=O)O)cs3)c2CC2CC2)cc1F [Compound 397] | > 7.00
* Cc1ccc(C#Cc2cc(-c3nn(-c4nc(C(=O)O)cs4)c(CC4CC4)c3Cc3ccc(S(N)(=O)=O)c(F)c3)ccc2F)s1 [Compound 408] | > 7.00
* NS(=O)(=O)c1ccc(Cc2c(-c3ccc(F)c(C#CC4CCC4)c3)nn(-c3nc(C(=O)O)cs3)c2CC2CC2)cc1F [Compound 446] | > 7.00
* NS(=O)(=O)c1ccc(Cc2c(-c3ccc(F)c(C4C5CC6CC(C5)CC4C6)c3)nn(-c3nc(C(=O)O)cs3)c2CC2CC2)cc1F (centres unmarked) [Compound 375] | 6.00 to 7.00
* CCc1cccc(-c2cc(-c3nn(-c4nc(C(=O)O)cs4)cc3Cc3ccc(S(N)(=O)=O)cc3)ccc2F)c1 [Compound 513] | 6.00 to 7.00
* Cc1ccc(-c2nn(-c3nc(C(=O)O)cs3)cc2Cc2ccc(S(N)(=O)=O)cc2)cc1-c1ccccc1 [Compound 491] | 6.00 to 7.00
* Cc1ccc(-c2cccc(-c3nn(-c4nc(C(=O)O)cs4)c(C4CC4)c3Cc3ccc(S(N)(=O)=O)cc3F)c2)cc1 [Compound 355] | > 7.00
* CC(C)(C)NC(=O)c1cc(-c2nn(-c3nc(C(=O)O)cs3)c(CC3CC3)c2Cc2ccc(S(N)(=O)=O)c(F)c2)ccc1F [Compound 543] | > 7.00
* O=C(O)c1csc(-n2nc(-c3ccc(F)cc3)cc2O)n1 [Compound 425] | < 4.24
* NS(=O)(=O)c1ccc(Cc2cn(-c3nc(C(=O)O)cs3)nc2-c2ccc(F)c(-c3ccc(F)c(F)c3)c2)cc1 [Compound 517] | 6.00 to 7.00
* Cc1cc(-c2cccc(F)c2)cc(-c2nn(-c3nc(C(=O)O)cs3)c(CC3CC3)c2Cc2ccc(S(N)(=O)=O)cc2)c1 [Compound 505] | > 7.00

----------
IC50 overview
Biological target: Human LDHA (Homo sapiens (Human), UniProt P00338)
Assay: human LDHA primary biochemical assay (resazurin/diaphorase coupled, fluorescence)
Details: LDHA inhibitory activity, assay of Example 1; activity level classes
Excerpt: Test compounds were placed in a Greiner Bio-One (Monroe, N.C.) 1536-well black solid bottom assay plate. 200 millimolar (mM) Tris HCl, pH 7.4, 100 micromolar […] EDTA and 0.01% TWEEN-20™, final concentration, was used as the assay buffer. The LDHA reagent was 2 nanomolar (nM) Human LDHA (Meridian Life Science, Inc., Memphis, Tenn.), final concentration, in assay buffer.
Recorded Metric: IC50

* NS(=O)(=O)c1ccc(Cc2c(-c3ccc(F)c(-c4cccc(F)c4)c3)nn(-c3nc(C(=O)O)cs3)c2CC2CC2)cc1 [Compound 239] | < 0.1 µM
* Nc1c(Cc2ccc(S(N)(=O)=O)cc2)c(-c2ccccc2)nn1-c1nccc(O)n1 [Compound 152] | > 57 µM
* O=C(O)c1csc(-n2nc(-c3cc(F)cc(F)c3)cc2O)n1 [Compound 95] | > 57 µM
* Cc1nn(-c2nc(C(=O)O)cs2)c(O)c1Cc1ccc(S(N)(=O)=O)cc1 [Compound 66] | > 57 µM
* NS(=O)(=O)c1ccc(Cc2c(-c3cccc(-c4ccccc4)c3)nn(-c3nc(C(=O)O)cs3)c2CC(F)(F)F)cc1 [Compound 304] | 0.1 to 1 µM
* O=C(O)c1csc(-n2nc(-c3ccc(F)c(S(=O)(=O)NCc4ccccc4)c3)cc2O)n1 [Compound 110] | > 57 µM
* NS(=O)(=O)c1ccc(Oc2c(-c3ccccc3)nn(-c3nc(C(=O)O)cs3)c2C2CC2)cc1 [Compound 166] | < 0.1 µM
